For each entry below, report its log10 of IC50 value.
Target: human recombinant adenosine A2A receptor (Homo sapiens (Human), UniProt P29274)
Sequence (P29274 whole entry): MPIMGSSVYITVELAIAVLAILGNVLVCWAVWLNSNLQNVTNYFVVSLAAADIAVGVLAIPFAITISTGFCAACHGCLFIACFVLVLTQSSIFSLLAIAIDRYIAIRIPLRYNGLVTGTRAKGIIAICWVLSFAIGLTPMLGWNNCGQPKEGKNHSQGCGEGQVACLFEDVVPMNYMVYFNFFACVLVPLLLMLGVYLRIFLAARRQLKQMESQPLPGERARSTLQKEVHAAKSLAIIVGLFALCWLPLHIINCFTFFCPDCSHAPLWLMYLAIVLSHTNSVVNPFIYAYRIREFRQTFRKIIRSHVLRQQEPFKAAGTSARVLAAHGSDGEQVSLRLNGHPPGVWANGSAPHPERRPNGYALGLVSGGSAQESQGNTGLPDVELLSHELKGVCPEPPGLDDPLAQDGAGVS
Assay: cAMP assay (Assay 2), HEK-293 cells expressing A2A receptor
Conditions: HEK-293 cells expressing human recombinant adenosine A2A receptor
Give log10 of IC50, with IC50 taken in nM.

Measured log10 of IC50 for this entry `Cn1cc(-c2cc3c(=O)cc[nH]c3nc2-c2ccccc2)ccc1=O` on human recombinant adenosine A2A receptor (Homo sapiens (Human), UniProt P29274): 2.19

Simply: `Cn1cc(-c2cc3c(=O)cc[nH]c3nc2-c2ccccc2)cc(Cl)c1=O` , human recombinant adenosine A2A receptor (Homo sapiens (Human), UniProt P29274), log10 of IC50 = 2.29

`N#Cc1cccc(-c2nc3[nH]ccc(=O)c3cc2-c2ccc3ncccc3c2)c1` on human recombinant adenosine A2A receptor (Homo sapiens (Human), UniProt P29274) gives log10 of IC50 = 2.33

Test item `CC(C)n1cc(-c2cc3c(=O)cc[nH]c3nc2-c2ccccc2)cc(Cl)c1=O` ; human recombinant adenosine A2A receptor (Homo sapiens (Human), UniProt P29274); reported log10 of IC50 was 1.04

// compound `CC(C)n1cc(-c2cc3c(=O)cc[nH]c3nc2-c2ccccc2)ccc1=O` , assay human recombinant adenosine A2A receptor (Homo sapiens (Human), UniProt P29274), log10 of IC50 value: 1.53

* * *

Target: adenosine A1 (human) membrane (Homo sapiens (Human))
Assay: A1 adenosine receptor radioligand binding assay ([3H] DPCPX)
Conditions: radioligand [3H] DPCPX 1 nM, compound 200 nM
VALUE_KIND: inhibition at 0.2 µM (%)
Give the quantity in %, number only.

Record summary for `N#Cc1cccc(-c2nc3[nH]ccc(=O)c3cc2-c2ccc3ncsc3c2)c1` : reported inhibition at 0.2 µM = 85

Entry `Cc1cc(-c2cc3c(=O)cc[nH]c3nc2-c2cccc(C#N)c2)cc(Cl)n1` , inhibition at 0.2 µM reported as 26

So, `N#Cc1cccc(-c2nc3[nH]ccc(=O)c3cc2-c2ccc3[nH]ncc3c2)c1` ? Its inhibition at 0.2 µM was 81

* * *

IC50 tested on adenosine A2a (human) membrane (Homo sapiens (Human)): recorded values
Give your result in µM as a bare value.

So for Cc1cc(-c2cc3c(=O)cc[nH]c3nc2-c2cccc(C#N)c2)cc(Cl)n1 [Compound 6] , the logged IC50 turned out to be 0.113

Value of IC50 reported for the molecule Cc1cc(-c2cc3c(=O)cc[nH]c3nc2-c2cccc(C#N)c2C)cc(Cl)n1 [Compound 3] is 2.6

// IC50 value for N#Cc1cccc(-c2nc3[nH]ccc(=O)c3cc2-c2ccc3ncsc3c2)c1 [Compound 79] : 0.0095

IC50 reported for this molecule N#Cc1cccc(-c2nc3[nH]ccc(=O)c3cc2-c2ccc3[nH]ncc3c2)c1 [Compound 78] : 0.049

* * *

I'd be grateful if you could share measured inhibition at 0.2 µM for these entries.
Target: adenosine A1 (human) membrane (Homo sapiens (Human), UniProt P30542)
Sequence (P30542 whole entry): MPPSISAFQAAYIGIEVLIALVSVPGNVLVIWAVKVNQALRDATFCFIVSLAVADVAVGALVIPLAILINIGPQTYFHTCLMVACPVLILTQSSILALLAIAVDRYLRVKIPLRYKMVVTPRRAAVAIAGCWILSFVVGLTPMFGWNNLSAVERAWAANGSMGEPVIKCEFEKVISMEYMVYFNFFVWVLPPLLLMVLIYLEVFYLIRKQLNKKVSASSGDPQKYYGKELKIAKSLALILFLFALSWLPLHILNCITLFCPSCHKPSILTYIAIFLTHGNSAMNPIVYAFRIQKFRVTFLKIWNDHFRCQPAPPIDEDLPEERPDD
Experiment: A1 adenosine receptor radioligand binding assay ([3H] DPCPX)
Conditions: radioligand [3H] DPCPX 1 nM, compound 200 nM
API: value field is a number in %; no unit string.

GET /value?item= Cc1cc(-c2cc3c(=O)cc[nH]c3nc2-c2ccccc2)cc(Cl)c1NS(C)(=O)=O [Compound 45] &field=inhibition at 0.2 µM returns 34

The measured inhibition at 0.2 µM associated with CC(C)n1cc(-c2cc3c(=O)cc[nH]c3nc2-c2ccccc2)ccc1=O [Compound 1] reads 98

inhibition at 0.2 µM recorded for this compound, N#Cc1cccc(-c2nc3[nH]ccc(=O)c3cc2-c2ccc3ncccc3c2)c1 [Compound 77] , is 61

Entry Cn1cc(-c2cc3c(=O)cc[nH]c3nc2-c2ccccc2)cc(Cl)c1=O [Compound 75] — recorded inhibition at 0.2 µM = 82
